- Experimental Protocol: Plasma drug concentrations and pharmacokinetics after a single intravenous or subcutaneous injection of SIPI-G9 in SD rats
- Condition Parameters: male, SD, rat, plasma, sc, 5 mg/kg, Plasma G-9 concentration, SIPI-G9 5 mg/kg single subcutaneous injection, SD rats, 60 min, individual rats
Peptide text beside a SMILES is read from it. * marks the point of attachment. X1 = CC(=O)N[C@H]1C(*)O[C@H](CO)[C@@H](O)[C@@H]1O
Readout Name: level at 1 h (ng/mL)
Respond numerically; units are ng/mL and should not be typed.

level at 1 h lookup needed for CC(=O)N[C@H]1C(OC[C@H](NC(=O)[C@@H](NC(=O)[C@H](Cc2ccc(O)cc2)NC(=O)[C@@H](NC(=O)[C@H](CCC(N)=O)NC(=O)CN)[C@@H](C)OC2O[C@H](CO)[C@@H](O)[C@H](O)[C@H]2NC(C)=O)[C@@H](C)O)C(=O)NCC(=O)O)O[C@H](CO)[C@@H](O)[C@@H]1O (stereo partly shown) [SIPI-G9, GQT(Glc)YTS(Glc)G] (H-GQT(X1)YTS(X1)G-OH) , thanks.
118

* * *

- Experimental Protocol: Stability of each 7-peptide compound in rat whole blood
- Assay type: in vitro ADME
- Condition Parameters: rat whole blood, 37° C., 1000 ng/mL, incubation time 0 min; read-out: Recovery rate (%) M±SD
Readout Name: recovery (%)
Respond numerically; units are % and should not be typed.

recovery lookup needed for H-GQTYTSG-OH [SP, GQTYTSG, reference compound] , thanks.
100

* * *

- Experimental Protocol: Plasma drug concentrations and pharmacokinetics after a single intravenous or subcutaneous injection of SIPI-G9 in SD rats
- Condition Parameters: male, SD, rat, plasma, sc, 5 mg/kg, Plasma G-9 concentration, Mean, SIPI-G9 5 mg/kg s.c., SD rats, 20 min, n=3
Peptide text beside a SMILES is read from it. * marks the point of attachment. X1 = CC(=O)N[C@H]1C(*)O[C@H](CO)[C@@H](O)[C@@H]1O
Readout Name: level at 20 min (ng/mL)
Respond numerically; units are ng/mL and should not be typed.

level at 20 min lookup needed for CC(=O)N[C@H]1C(OC[C@H](NC(=O)[C@@H](NC(=O)[C@H](Cc2ccc(O)cc2)NC(=O)[C@@H](NC(=O)[C@H](CCC(N)=O)NC(=O)CN)[C@@H](C)OC2O[C@H](CO)[C@@H](O)[C@H](O)[C@H]2NC(C)=O)[C@@H](C)O)C(=O)NCC(=O)O)O[C@H](CO)[C@@H](O)[C@@H]1O (stereo partly shown) [SIPI-G9, GQT(Glc)YTS(Glc)G] (H-GQT(X1)YTS(X1)G-OH) , thanks.
408

* * *

- Experimental Protocol: Plasma drug concentrations and pharmacokinetics after a single subcutaneous injection of SP peptide or SIPI-D00 peptide in SD rats
- Assay type: in vivo
- Condition Parameters: male, SD, rat, plasma, sc, 5 mg/kg, SIPI-D00 5 mg/kg s.c., SD rats, time 1 h, parallels 1-4; read-out: Plasma concentration
Square brackets hold non-standard residues; d marks the D form. Peptide text beside a SMILES is read from it.
Readout Name: level at 1 h (ng/mL)
Respond numerically; units are ng/mL and should not be typed.

level at 1 h lookup needed for C[C@H](O)[C@@H](NC(=O)[C@@H](Cc1ccc(O)cc1)NC(=O)[C@H](NC(=O)[C@@H](CO)NC(=O)CN)[C@H](C)O)C(=O)N[C@H](CCC(N)=O)C(=O)NCC(=O)O [SIPI-D00, GSTYTQG] (H-G[dS][dT][dY][dT][dQ]G-OH) , thanks.
3940
